molecular target: c-Src SH2; test: SH2 binding enrichment of the phosphorylated peptide, bacterial display (enrichment ratio); higher = better substrate or ligand; peptides without Tyr show the background;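 note: peptide library displayed on the E. coli surface as eCPX fusions, selected cells deep-sequenced, score is each peptide's frequency after selection divided by its frequency in the input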
Would you mind labelling by SH2 binding enrichment? At or over 0.4 is 1, under is 0.

Tell me whether SH2 binding enrichment is at least 0.4 here: RAIELCNDKEK [OTULIN_Y244_Y244C]
1

Is the recorded value of SH2 binding enrichment equal to or greater than 0.4 for this sequence? TDLAYYLVCKG [ASL_Y376_R379C]
1

Check if SH2 binding enrichment >= 0.4 (inclusive). Item: CENNRYGMGAS [PDHA1_Y227_T231A]
1

Check if SH2 binding enrichment >= 0.4 (inclusive). Item: TEFIQYMRRKN [MAX_Y73_YF]
0

Could you please find out whether IRTGIYHGGEP [PIK3CA_Y361_V356I] has SH2 binding enrichment that meets 0.4 or exceeds it?
0

Hello, I need to know if QERPEYWDQET [HLA-A_Y83_G80R] has measured SH2 binding enrichment not below 0.4. Thanks!
1

Check the entry VVKTVYSLQPP [KNSTRN_Y87] : does SH2 binding enrichment equal or exceed 0.4?
1

====

biological target: Fyn (UniProt P06241); assay: phosphorylation enrichment, bacterial display (enrichment ratio); higher = better substrate or ligand; peptides without Tyr show the background
Sequence (P06241 whole entry, looked up): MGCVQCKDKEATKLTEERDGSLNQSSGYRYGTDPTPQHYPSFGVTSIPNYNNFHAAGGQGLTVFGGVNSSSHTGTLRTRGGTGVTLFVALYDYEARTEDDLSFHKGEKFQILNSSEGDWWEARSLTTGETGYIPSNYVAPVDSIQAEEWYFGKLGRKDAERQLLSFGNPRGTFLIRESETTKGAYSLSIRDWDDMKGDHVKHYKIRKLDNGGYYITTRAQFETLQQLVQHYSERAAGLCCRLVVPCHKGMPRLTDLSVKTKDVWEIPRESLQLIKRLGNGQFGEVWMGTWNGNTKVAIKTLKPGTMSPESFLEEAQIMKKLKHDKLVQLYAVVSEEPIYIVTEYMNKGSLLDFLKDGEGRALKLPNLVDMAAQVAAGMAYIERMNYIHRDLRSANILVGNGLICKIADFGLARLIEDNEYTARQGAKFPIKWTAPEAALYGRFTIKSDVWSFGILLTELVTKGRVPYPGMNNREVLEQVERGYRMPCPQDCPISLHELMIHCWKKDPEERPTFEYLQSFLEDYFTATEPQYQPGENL
Provide the recorded phosphorylation enrichment for the entries that follow.
I only need the number, thanks.

phosphorylation enrichment for ELQDDYEDTME [SLC4A1_Y8_M11T] is 0.77

phosphorylation enrichment reported for this sequence GLALRCLSDHS [VWF_Y1584_Y1584C] : 0.515

Short answer for MEKEKYVSYIS [JMJD1C_Y596] : phosphorylation enrichment was 0.471

The reported value for QYNPEYVQQAS [LRRC7_Y1058_H1054Y] in terms of phosphorylation enrichment is 0.707

Looking up IEKLTYIDKWF [CPS1_Y872] , I found its phosphorylation enrichment recorded as 0.412

Summary for this sequence, PFVFFYSFLLK [PTEN_Y178_R173P_YF] : phosphorylation enrichment is 0.679

The sequence listed as YSPYDYQPCLA [TNS1_Y798] has a reported phosphorylation enrichment of 4.27

Looking up MMVGAYSTLEG [ECPAS_Y470] , I see its phosphorylation enrichment listed as 0.607

Noted for SVMAEYGLFRA [VSX2_Y219_G223R_YF] : its phosphorylation enrichment reads 6.8

For this sequence ( SGKSEYLLPVA [MYLK_Y611_R607G] ), measured phosphorylation enrichment is 0.453

Measured phosphorylation enrichment, LLVVLYKFRCF [PSEN1_Y154_Y159F_YF] : 0.51

Per the records, this sequence ( LDLSYYPTSSS [EMD_Y182] ) has phosphorylation enrichment equal to 0.762

Entry DIPIRYSITGV [CDH4_Y205] — recorded phosphorylation enrichment = 0.447

Measured phosphorylation enrichment of YECKWYIPLTD [BCR_Y756_D752E] : 0.469

So for CTTLHYNYMCN [TP53_Y234_I232L] , the logged phosphorylation enrichment turned out to be 0.492

The reported value for ANYTEYVATSW [CDKL5_Y171_R175S] in terms of phosphorylation enrichment is 0.722

GET /value?item= PEFINYHQHNS [BTK_Y361_L358F] &field=phosphorylation enrichment returns 0.552

MTFMFYRENLR [NLRP14_Y443_V441M_YF] has a reported phosphorylation enrichment of 0.537

The value of phosphorylation enrichment measured for the sequence EIIPFYGMSTY [FNDC3B_Y175] turned out to be 0.864

Documented phosphorylation enrichment of QRIFQYIRSRF [DYRK1B_Y273_Q275R_YF] : 0.837

The reported value for LKLIQYHLTQQ [AKAP4_Y554] in terms of phosphorylation enrichment is 0.5

Entry FNSLLYQVPTS [CALCOCO2_Y358_P357L] , phosphorylation enrichment reported as 2.58

phosphorylation enrichment reported for this sequence RKRQFYLFKGK [RSPO4_Y112_C107R_YF] : 1.14

GET /value?item= MVSLFYGTAIF [OR10C1_Y251_L255I] &field=phosphorylation enrichment returns 1.1

In plain terms, AELKLYSGAQT [ZAP70_Y178_R175L] has a documented phosphorylation enrichment of 0.455

The sequence listed as CSTIHYNYMCN [TP53_Y234_T230S] shows phosphorylation enrichment equal to 0.461

Briefly, phosphorylation enrichment measured for TAGFIYEKWEI [TEC_Y360_S359I] : 2.78

Looking up YRVDCYKNFVA [FHL1_Y213_C209R] , I see its phosphorylation enrichment listed as 0.504

====

test system: c-Abl (mouse); test: phosphorylation enrichment, bacterial display (enrichment ratio); higher = better substrate or ligand; peptides without Tyr show the background
For each entry below, report its phosphorylation enrichment value.

Reading of phosphorylation enrichment for FARECYSALPQ [SARS2_Y52_G51C_YF] with c-Abl (mouse): 0.726

Given the sequence EFSNQYKATIG [RAB7A_Y37_K32E] and test system c-Abl (mouse), the measured phosphorylation enrichment is 0.524

Item: VFFGSYSCPFG [NKAP_Y104_R106C_YF] | System: c-Abl (mouse) | phosphorylation enrichment: 1.15

Observed phosphorylation enrichment on c-Abl (mouse), entry KKARAYGPGIE [FLNA_Y287] , equals 0.468

Summary line: ANAFIYDVQLP [L1CAM_Y420_V421D_YF] , c-Abl (mouse), reported phosphorylation enrichment = 0.715

The reported phosphorylation enrichment value, c-Abl (mouse), for EEQKKYYNATK [SCN5A_Y1494_M1498T] reads 0.407

Form: item QTLTDYDTRFY [CSNK2A3_Y131_I133T] ; test system c-Abl (mouse); phosphorylation enrichment: 0.692

Item LSSETYVKSYT [F5_Y2149_M2148T] was tested on c-Abl (mouse); the reported phosphorylation enrichment is 0.908

c-Abl (mouse) assay, sequence QTPVLYTMLDH [MPZ_Y220_A221T] , recorded phosphorylation enrichment = 0.674

Lab entry: c-Abl (mouse) assay, sequence IYGASYVPFAA [RBM47_Y541] , phosphorylation enrichment = 9.26

// sequence LPVHFYSHVEH [PYGM_Y204_G205S] , assay c-Abl (mouse), phosphorylation enrichment value: 1.2

Simply: HFPFQCHRQLY [F12_Y53_Y53C] , c-Abl (mouse), phosphorylation enrichment = 0.532

Tested on c-Abl (mouse): HRAVEYLLMGI [RAD23A_Y197_T200M] . Observed phosphorylation enrichment: 0.665

Lab entry: c-Abl (mouse) assay, sequence YKIYLYTLNDN [FN1_Y1975] , phosphorylation enrichment = 1.09

====

system: AncSZ; experiment: phosphorylation enrichment, bacterial display (enrichment ratio); higher = better substrate or ligand; peptides without Tyr show the background
Binary call on phosphorylation enrichment: Y from 0.8 upward, N beneath that.

Dear colleague, could you confirm whether SIRYNYLLDVL [FGFR4_Y237] has phosphorylation enrichment at or above 0.8?
Y

Check the entry RRESPYGGGGG [FUS_Y526_R524S] : does phosphorylation enrichment equal or exceed 0.8?
N

Is phosphorylation enrichment at least 0.8? Consider HSGVSYFINLC [IGF2R_Y2024_N2020S_YF]
Y

Dear colleague, could you confirm whether KRIETYFSKNY [PLP1_Y50_L46R] has phosphorylation enrichment at or above 0.8?
N

Confirm if phosphorylation enrichment reported for the sequence GLDGSYLLRFS [SH2D1A_Y29_D33Y_YF] is 0.8 or above.
Y

Please check the record SVMAEYGLFRA [VSX2_Y219_G223R_YF] and state if its phosphorylation enrichment is at or above 0.8.
N

Does the reported phosphorylation enrichment for AHDGEYGAEAL [HBA1_Y25_A22D] fall at or above the 0.8 mark?
Y

Would you say MANFVYKAGPS [MAML2_Y515_M514V_YF] shows phosphorylation enrichment at minimum 0.8?
N

Would you say IRTIDYRFTVW [IDS_Y497_YF] shows phosphorylation enrichment at minimum 0.8?
Y

Has IDGLEYLHSQS [STK11_Y166_G171S] a recorded phosphorylation enrichment greater than or equal to 0.8?
Y

Determine whether this sequence has phosphorylation enrichment no lower than 0.8: GDPTEYYSTAI [IGSF22_Y501]
Y

Hi team, for ANAFIYDVQLP [L1CAM_Y420_V421D_YF] , is the recorded phosphorylation enrichment at or above 0.8?
Y

====

target: MERTK (UniProt Q12866); test: phosphorylation enrichment, bacterial display (enrichment ratio); higher = better substrate or ligand; peptides without Tyr show the background
Sequence (Q12866 whole entry, looked up): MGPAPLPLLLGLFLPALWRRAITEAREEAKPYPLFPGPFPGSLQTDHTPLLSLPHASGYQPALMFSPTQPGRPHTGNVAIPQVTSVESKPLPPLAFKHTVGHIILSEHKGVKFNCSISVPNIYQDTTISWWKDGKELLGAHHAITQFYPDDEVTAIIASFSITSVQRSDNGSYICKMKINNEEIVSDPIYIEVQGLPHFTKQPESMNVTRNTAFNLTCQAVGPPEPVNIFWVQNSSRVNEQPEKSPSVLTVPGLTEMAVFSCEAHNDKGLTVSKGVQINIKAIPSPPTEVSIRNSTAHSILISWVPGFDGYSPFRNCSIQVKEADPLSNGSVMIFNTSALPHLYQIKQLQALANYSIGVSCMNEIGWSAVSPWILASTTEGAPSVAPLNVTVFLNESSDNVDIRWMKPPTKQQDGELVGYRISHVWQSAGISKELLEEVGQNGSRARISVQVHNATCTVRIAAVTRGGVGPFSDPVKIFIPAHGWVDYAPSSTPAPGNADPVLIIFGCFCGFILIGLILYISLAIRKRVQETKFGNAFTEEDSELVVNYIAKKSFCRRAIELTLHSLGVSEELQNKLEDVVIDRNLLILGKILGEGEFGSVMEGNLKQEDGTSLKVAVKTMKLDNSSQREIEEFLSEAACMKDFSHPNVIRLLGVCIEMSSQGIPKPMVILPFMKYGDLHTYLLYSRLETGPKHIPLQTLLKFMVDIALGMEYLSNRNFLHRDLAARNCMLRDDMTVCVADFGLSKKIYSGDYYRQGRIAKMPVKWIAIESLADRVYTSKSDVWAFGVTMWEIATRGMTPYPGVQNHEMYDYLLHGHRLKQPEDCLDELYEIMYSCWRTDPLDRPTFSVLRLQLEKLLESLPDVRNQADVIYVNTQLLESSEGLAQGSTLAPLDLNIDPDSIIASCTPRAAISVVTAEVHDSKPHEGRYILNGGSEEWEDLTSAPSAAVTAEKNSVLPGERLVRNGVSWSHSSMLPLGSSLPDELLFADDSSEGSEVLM
OBSERVED_PROPERTY: phosphorylation enrichment
Lab note: record the figure alone, no unit after it.

Record GRQWNYVASMS [KLHL4_Y552] , field phosphorylation enrichment: 0.395

Lab book: phosphorylation enrichment of GLDGSYLLRFS [SH2D1A_Y29_D33Y_YF] noted as 0.414

IMITDYLLLFR [INSR_Y87] has a reported phosphorylation enrichment of 0.399

sequence YSPYDYQPCLA [TNS1_Y798] , phosphorylation enrichment observed: 5.67

Value of measured phosphorylation enrichment for the entry FSQQTYYRVSN [ABCD1_Y180] : 2.85

Data point: TSNQEYLDLSM [FGFR1_Y766] ; phosphorylation enrichment = 0.437

Documented phosphorylation enrichment of PLKYLYPNIDK [STAT1_Y668] : 0.786

Quick note, phosphorylation enrichment for RESVSYLFSHV [PRPS1_Y311_G306R] landed at 0.492

# phosphorylation enrichment (sequence: SGDINYGQFAQ [PLCG1_Y210_T209N] ) is 0.387

Sample VVQGIYGYHHY [UFSP2_Y285] ; phosphorylation enrichment observed: 11.3

Entry CTTIRYNYMCN [TP53_Y234_H233R] ; phosphorylation enrichment = 0.457

Quick note, phosphorylation enrichment for EFRFIYMAVQH [PTPN11_Y515_Q510E_YF] landed at 0.519

Lab note: HSGVSYFINLC [IGF2R_Y2024_N2020S_YF] gave phosphorylation enrichment of 0.417

phosphorylation enrichment reading for SVMAEYGLFRA [VSX2_Y219_G223R_YF] : 0.51

Recorded phosphorylation enrichment (sequence EPNSRYTYKLE [USH2A_Y3745] ): 0.384

# sequence KLSFSYGQALQ [ALDOB_Y302_R304Q] ; its phosphorylation enrichment = 0.437

Lab note: measured phosphorylation enrichment of LSSEMYVKSYT [F5_Y2149] was 0.76

phosphorylation enrichment measured on CTTIHFNFMCN [TP53_Y234_Y234F_YF] = 0.525

Looking up KGYCGYSYDDI [TMEM230_Y110_R108C] , I see its phosphorylation enrichment listed as 0.607

Item: PKEEPYKMQEK [SLC5A3_Y565_Q566K] | phosphorylation enrichment: 0.467

Please fill in: phosphorylation enrichment reported for NEKNIYRVPLM [BMPR2_Y247] = 0.609

Kindly note the recorded phosphorylation enrichment for MSSAGYRAAEG [COL6A3_Y543_T538M] , which is 0.372

Entry EADRKYEEVAG [TPM3_Y163_R168G] , phosphorylation enrichment reported as 0.48

// phosphorylation enrichment lookup, sequence = RRAKGYPINLY [ITGB2_Y125_D128N] , result: 0.623

Per the record, PEFINYHQHNS [BTK_Y361_L358F] has phosphorylation enrichment of 0.507

Lookup result for SLALFYRKVYH [RBL1_Y792] ; measured phosphorylation enrichment: 0.408

Value of measured phosphorylation enrichment for the entry PSAELYSNALP [PDGFRB_Y716] : 7.96

Looking up KMMGRYEMFAR [UPB1_Y362_T359M_YF] , I found its phosphorylation enrichment recorded as 0.393

Sure, the documented phosphorylation enrichment for LSQAKYQIRFR [CRLF1_Y272_F268S_YF] is 0.499

Lab note: measured phosphorylation enrichment of SKHHLYSDLQT [PTCHD1_Y84_R82H] was 2.23

Lab book: phosphorylation enrichment of VTRKEYFIFLE [CAMKV_Y95] noted as 0.401

Lab note: measured phosphorylation enrichment of KTTSGYAGGLS [KRT8_Y419] was 0.3

Consider "GGGMIYPLDLF" . Its measured phosphorylation enrichment is 0.688

Sample RLLVVYPWTQK [HBG1_Y36_R41K] ; phosphorylation enrichment observed: 0.32

get_value(item= FPKAHYHWLVL [APTX_Y214_R213H_YF] , readout=phosphorylation enrichment) returns 0.619

Entry CTTIHYNFMCF [TP53_Y234_N239Y_YF] ; phosphorylation enrichment = 0.409

phosphorylation enrichment reported for this sequence GLALRCLSDHS [VWF_Y1584_Y1584C] : 0.422

For reference, reported phosphorylation enrichment for IEKLTYIDKWF [CPS1_Y872] stands at 0.385

What the record says about VTPSEYLEIVR [TMEM130_Y412_E407V] : phosphorylation enrichment is 0.387

Record PFSEPYADFGG [APBA1_Y187_YF] , field phosphorylation enrichment: 0.76

Input RHPFFYAPELL [ALB_Y174_YF] . Output phosphorylation enrichment: 0.839

Item: NKEAICSGFIR [SMCHD1_Y283_Y283C_YF] | phosphorylation enrichment: 0.455

Briefly, phosphorylation enrichment measured for KDQGIYEDFVE [MYL6_Y86_T85I_YF] : 0.614

// NYAKMYCNPDA [KNL1_Y489] : phosphorylation enrichment value = 0.498

Lab book: phosphorylation enrichment of VFAANYFKLLG [ROR2_Y645_D644N_YF] noted as 1.13

Given item ETAENYLGYTA [HSPA9_Y181_H184Y] , the value recorded as its phosphorylation enrichment is 0.516

Recorded phosphorylation enrichment (sequence ETEMLYGSARR [PRC1_Y464_P468R] ): 0.38

# phosphorylation enrichment of IDGLEYLHSQS [STK11_Y166_G171S] = 0.325

So, RIDRKYKKVRF [F8_Y442_G439D] ? Its phosphorylation enrichment was 1.19

Measured phosphorylation enrichment of TLEKFYFAFPG [SLC1A1_Y51] : 7.49

Field phosphorylation enrichment (entry VFAPDFIAGVS [NOB1_Y366_Y366F] ) reads 0.469

phosphorylation enrichment for QDGFSYPSRQM [LDLR_Y847_YF] is 0.415

// sample EKKDLYKAGEQ [CFH_Y1008_V1007L] , its phosphorylation enrichment was 0.374

Entry GRQWNYVASML [KLHL4_Y552_S557L] , phosphorylation enrichment reported as 0.367

Lookup result for RHPYFFAPELL [ALB_Y174_Y174F] ; measured phosphorylation enrichment: 0.557

Input FRAVKYLQMVG [AVPR2_Y117_C112Y_YF] . Output phosphorylation enrichment: 0.366

Input RQSRNYLGGFA [SYK_Y47] . Output phosphorylation enrichment: 1.75
